Target: FGFR1(V561M)(h) (Homo sapiens, UniProt P11362, V561M)
Sequence (P11362 22-822 V561M): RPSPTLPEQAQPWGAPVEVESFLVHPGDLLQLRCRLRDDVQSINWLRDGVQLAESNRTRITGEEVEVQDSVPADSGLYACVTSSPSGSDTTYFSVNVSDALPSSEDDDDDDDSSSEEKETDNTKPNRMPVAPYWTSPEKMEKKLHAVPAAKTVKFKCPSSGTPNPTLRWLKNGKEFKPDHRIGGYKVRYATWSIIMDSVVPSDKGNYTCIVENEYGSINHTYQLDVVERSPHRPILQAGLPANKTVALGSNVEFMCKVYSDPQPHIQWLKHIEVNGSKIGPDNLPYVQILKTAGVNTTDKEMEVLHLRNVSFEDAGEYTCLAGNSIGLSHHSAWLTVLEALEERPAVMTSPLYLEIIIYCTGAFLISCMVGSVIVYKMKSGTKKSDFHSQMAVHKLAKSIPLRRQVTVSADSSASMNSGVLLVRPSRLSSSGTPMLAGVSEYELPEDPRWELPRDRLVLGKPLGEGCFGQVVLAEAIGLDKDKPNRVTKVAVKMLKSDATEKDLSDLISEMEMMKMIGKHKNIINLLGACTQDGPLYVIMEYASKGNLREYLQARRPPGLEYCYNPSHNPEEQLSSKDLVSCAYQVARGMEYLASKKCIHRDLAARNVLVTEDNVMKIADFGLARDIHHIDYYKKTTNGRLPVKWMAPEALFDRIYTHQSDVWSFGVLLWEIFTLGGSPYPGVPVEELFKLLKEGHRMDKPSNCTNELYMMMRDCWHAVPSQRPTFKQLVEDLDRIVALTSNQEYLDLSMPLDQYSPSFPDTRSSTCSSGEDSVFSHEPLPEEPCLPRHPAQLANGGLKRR
Test: Kinase Profiling Assay
Type: biochemical
Details: peptide 100 μM
No end group written: not given here.
ASSAY_READOUT: % activity (%)

{"columns": ["ITEM_SEQUENCE", "MEASURED_ON", "ASSAY_READOUT", "VALUE_MEASURED"],
 "data": [
  ["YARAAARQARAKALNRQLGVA (Mammal) [MMI-0200]", "FGFR1(V561M)(h) (Homo sapiens, UniProt P11362, V561M)", "% activity", 72],
  ["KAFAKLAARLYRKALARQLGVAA [MMI-0400]", "FGFR1(V561M)(h) (Homo sapiens, UniProt P11362, V561M)", "% activity", 74],
  ["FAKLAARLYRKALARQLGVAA [MMI-0300]", "FGFR1(V561M)(h) (Homo sapiens, UniProt P11362, V561M)", "% activity", 74],
  ["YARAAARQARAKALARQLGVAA [MMI-0100]", "FGFR1(V561M)(h) (Homo sapiens, UniProt P11362, V561M)", "% activity", 108]
]}

====

Molecular target: Rse(h) (Homo sapiens, UniProt Q06418)
Sequence (Q06418 41-890): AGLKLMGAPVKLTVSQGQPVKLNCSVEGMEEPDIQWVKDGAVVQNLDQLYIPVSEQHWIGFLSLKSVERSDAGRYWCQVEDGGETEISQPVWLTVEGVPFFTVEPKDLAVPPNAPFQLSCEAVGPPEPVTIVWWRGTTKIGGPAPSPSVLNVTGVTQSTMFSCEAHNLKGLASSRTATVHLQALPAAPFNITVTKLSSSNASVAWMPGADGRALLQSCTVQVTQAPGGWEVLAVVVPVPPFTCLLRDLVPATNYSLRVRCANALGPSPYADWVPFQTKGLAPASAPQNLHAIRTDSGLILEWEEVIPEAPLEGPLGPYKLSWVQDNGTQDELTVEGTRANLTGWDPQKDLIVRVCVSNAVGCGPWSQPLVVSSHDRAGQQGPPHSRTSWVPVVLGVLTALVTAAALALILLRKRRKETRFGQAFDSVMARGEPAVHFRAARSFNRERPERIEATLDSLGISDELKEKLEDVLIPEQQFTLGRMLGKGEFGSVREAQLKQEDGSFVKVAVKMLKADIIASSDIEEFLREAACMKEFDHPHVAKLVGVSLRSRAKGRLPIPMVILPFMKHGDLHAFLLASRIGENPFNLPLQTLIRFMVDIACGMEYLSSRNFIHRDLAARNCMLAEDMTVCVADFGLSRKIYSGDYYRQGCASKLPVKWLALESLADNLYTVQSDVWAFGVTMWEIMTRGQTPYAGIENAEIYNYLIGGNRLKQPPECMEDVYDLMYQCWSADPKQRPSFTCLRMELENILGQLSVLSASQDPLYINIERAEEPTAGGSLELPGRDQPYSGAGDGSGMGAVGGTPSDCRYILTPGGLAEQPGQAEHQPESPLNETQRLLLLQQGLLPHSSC
Assay: Kinase Profiling Assay
Type: biochemical
Conditions: peptide 100 μM
% activity for assorted sequences
ASSAY_READOUT: % activity

{"columns": ["ITEM_SEQUENCE", "ASSAY_READOUT", "VALUE_MEASURED"],
 "data": [
  ["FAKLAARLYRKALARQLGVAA [MMI-0300]", "% activity", "88%"],
  ["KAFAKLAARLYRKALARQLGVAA [MMI-0400]", "% activity", "89%"],
  ["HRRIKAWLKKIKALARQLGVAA (Mammal) [MMI-0500]", "% activity", "63%"],
  ["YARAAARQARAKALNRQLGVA (Mammal) [MMI-0200]", "% activity", "88%"]
]}
